Test system: PBMC
Conditions: 12.5 µM
value-type: Average (percentage cell inhibition), Mastoparan PBMC (%)
Answer format: numeric, % implied, no suffix.

Input line: Would you mind telling me what Average (percentage cell inhibition), Mastoparan PBMC value was observed for `CC[C@H](C)[C@H](N)C(=O)N[C@@H](CC(N)=O)C(=O)N[C@@H](CC(C)C)C(=O)N[C@@H](Cc1c[nH]c2ccccc12)C(=O)N[C@@H](C)C(=O)N[C@@H](CC(C)C)C(=O)N[C@@H](C)C(=O)N[C@@H](C)C(=O)N[C@@H](CC(C)C)C(=O)N[C@@H](C)C(=O)N[C@@H](CCCCN)C(=O)N[C@@H](CCCCN)C(=O)N[C@H](C(=O)N[C@@H](CC(C)C)C(N)=O)[C@@H](C)CC` ?
Output line: 30.4839

Input line: Would you mind telling me what Average (percentage cell inhibition), Mastoparan PBMC value was observed for `CC[C@H](C)[C@H](N)C(=O)N[C@@H](CC(N)=O)C(=O)N[C@@H](CC(C)C)C(=O)N[C@@H](CCCCN)C(=O)N[C@@H](C)C(=O)N[C@@H](CCC(N)=O)C(=O)N[C@@H](C)C(=O)N[C@@H](C)C(=O)N[C@@H](CC(C)C)C(=O)N[C@@H](C)C(=O)N[C@@H](CCCCN)C(=O)N[C@@H](CCCCN)C(=O)N[C@H](C(=O)N[C@@H](CC(C)C)C(N)=O)[C@@H](C)CC` ?
Output line: -3.273

Input line: Would you mind telling me what Average (percentage cell inhibition), Mastoparan PBMC value was observed for `CC[C@H](C)[C@H](N)C(=O)N[C@@H](CC(N)=O)C(=O)N[C@@H](CC(C)C)C(=O)N[C@@H](CCCCN)C(=O)N[C@@H](Cc1ccc(O)cc1)C(=O)N[C@@H](CC(C)C)C(=O)N[C@@H](C)C(=O)N[C@@H](C)C(=O)N[C@@H](CC(C)C)C(=O)N[C@@H](C)C(=O)N[C@@H](CCCCN)C(=O)N[C@@H](CCCCN)C(=O)N[C@H](C(=O)N[C@@H](CC(C)C)C(N)=O)[C@@H](C)CC` ?
Output line: 12.3024

Input line: Would you mind telling me what Average (percentage cell inhibition), Mastoparan PBMC value was observed for `CC[C@H](C)[C@H](N)C(=O)N[C@@H](CC(N)=O)C(=O)N[C@@H](CC(C)C)C(=O)N[C@@H](CCCCN)C(=O)N[C@@H](C)C(=O)N[C@@H](CC(C)C)C(=O)N[C@@H](C)C(=O)N[C@@H](C)C(=O)N[C@@H](CC(C)C)C(=O)N[C@@H](C)C(=O)N[C@@H](CCCCN)C(=O)N[C@@H](CCCCN)C(=O)N[C@H](C(=O)N[C@@H](CO)C(N)=O)[C@@H](C)CC` ?
Output line: -3.76

Input line: Would you mind telling me what Average (percentage cell inhibition), Mastoparan PBMC value was observed for `CC[C@H](C)[C@H](N)C(=O)N[C@@H](Cc1c[nH]cn1)C(=O)N[C@@H](CC(C)C)C(=O)N[C@@H](CCCCN)C(=O)N[C@@H](C)C(=O)N[C@@H](CC(C)C)C(=O)N[C@@H](C)C(=O)N[C@@H](C)C(=O)N[C@@H](CC(C)C)C(=O)N[C@@H](C)C(=O)N[C@@H](CCCCN)C(=O)N[C@@H](CCCCN)C(=O)N[C@H](C(=O)N[C@@H](CC(C)C)C(N)=O)[C@@H](C)CC` ?
Output line: 5.675
